Property: growth inhibition; scope: individual molecules
Test system: Plasmodium falciparum NF54
assay-explanation: growth inhibition relative to untreated control; higher = more inhibition
measurement-parameters: 5 µM; minimal medium (MM); 72 h

>  <smiles-string>
COc1ccc(N(CCc2cccc(C)n2)C(C)=O)cc1

>  <growth inhibition>
< 0%

$$$$
>  <smiles-string>
Cc1ccc2oc(-c3cc(NC(=O)Cc4ccccc4)ccc3Cl)nc2c1

>  <growth inhibition>
< 0%

$$$$
>  <smiles-string>
Cc1nnc(NCc2cccc(Cl)c2)c2ccccc12

>  <growth inhibition>
< 0%

$$$$

---

System: Plasmodium falciparum NF54
assay-explanation: growth inhibition relative to untreated control; higher = more inhibition
measurement-parameters: 5 µM; minimal medium (MM); 72 h
property-name: growth inhibition

>  <smiles-string>
COC(=O)Nc1nc2cc(C(=O)c3ccccc3)ccc2[nH]1

>  <property-name>
growth inhibition

>  <recorded-result>
< 0%

$$$$
>  <smiles-string>
COC(=O)c1cccc2oc(-c3cccc(OC)c3NC(=O)c3cc(-c4ccccc4)on3)nc12

>  <property-name>
growth inhibition

>  <recorded-result>
< 0%

$$$$
>  <smiles-string>
FC(F)(F)c1cnc(Sc2nnc(-c3ccncc3)o2)c(Cl)c1

>  <property-name>
growth inhibition

>  <recorded-result>
< 0%

$$$$

---

Recorded growth inhibition by entry
Tested on: Plasmodium falciparum NF54
assay-explanation: growth inhibition relative to untreated control; higher = more inhibition
measurement-parameters: 1 µM; minimal medium (MM); 72 h

>  <compound>
CN1CCCN(C(c2ccccc2)c2ccc(Cl)cc2)CC1 (stereo not given)

>  <target-or-test-system>
Plasmodium falciparum NF54

>  <growth inhibition>
< 0%

$$$$
>  <compound>
O=C(NCCc1ccccc1)c1cc(-c2cccnc2)cnc1NCC1CC1

>  <target-or-test-system>
Plasmodium falciparum NF54

>  <growth inhibition>
> 100%

$$$$
>  <compound>
NCCCC(N)(C(=O)O)C(F)F (stereo not given)

>  <target-or-test-system>
Plasmodium falciparum NF54

>  <growth inhibition>
< 0%

$$$$
>  <compound>
COC(=O)c1cccc2oc(-c3cccc(OC)c3NC(=O)c3cc(-c4ccccc4)on3)nc12

>  <target-or-test-system>
Plasmodium falciparum NF54

>  <growth inhibition>
< 0%

$$$$
>  <compound>
Cc1ccc(C(=O)Nc2ccc(S(=O)(=O)O)c3cc(S(=O)(=O)O)cc(S(=O)(=O)O)c23)cc1NC(=O)c1cccc(NC(=O)Nc2cccc(C(=O)Nc3cc(C(=O)Nc4ccc(S(=O)(=O)O)c5cc(S(=O)(=O)O)cc(S(=O)(=O)O)c45)ccc3C)c2)c1

>  <target-or-test-system>
Plasmodium falciparum NF54

>  <growth inhibition>
< 0%

$$$$

---

Test system: Plasmodium falciparum NF54
assay-explanation: growth inhibition relative to untreated control; higher = more inhibition
measurement-parameters: 1 µM; minimal medium (MM); 72 h
Measured growth inhibition of individual entries

>  <smiles-string>
Nc1ncnc2c1c(Cc1cccc3ccccc13)nn2CC1CCNCC1

>  <growth inhibition / %>
59.9

$$$$
>  <smiles-string>
CCc1c(C)nc(-n2nc(C)cc2NC(=O)c2ccccc2SC)[nH]c1=O

>  <growth inhibition / %>
60.2

$$$$
>  <smiles-string>
CN1CCN(c2nccc3[nH]c(-c4cccc(F)c4)cc23)CC1

>  <growth inhibition / %>
58.4

$$$$
